Reported viability, T/C values follow for various molecules
# Tested on: 817829-284-R-J1-PDC complex spheroids, viability
# method summary: Anticancer human tumor 817829-284-R-J1-PDC patient-derived colon adenocarcinoma cell line growth inhibition [GQUAD]
# condition context: second compound 0.316 µM; first compound 0.00316 µM; stronger effect = lower value
Reply with just the number (in %).

Illustrative cases are given below, each with its answer.
Cc1[nH]c2ccccc2c1CCNCc1ccc(/C=C/C(=O)NO)cc1 + CN(C)c1ccc(Nc2c3ccc(NC(=O)CCN4CCCC4)cc3nc3cc(NC(=O)CCN4CCCC4)ccc23)cc1 : 115
Cn1ncnc1[C@H]1c2n[nH]c(=O)c3cc(F)cc(c23)N[C@@H]1c1ccc(F)cc1 + Cc1cnc(CNC(=O)c2c(=O)c3ccc(N4CCCN(C)CC4)nc3n3c2sc2ccccc23)cn1 : 25.3
CCc1c2c(nc3ccc(O)cc13)-c1cc3c(c(=O)n1C2)COC(=O)[C@]3(O)CC + Cc1cnc(CNC(=O)c2c(=O)c3ccc(N4CCCN(C)CC4)nc3n3c2sc2ccccc23)cn1 : 27.2

Continue with the molecule presented below.
Value lookup for viability, T/C; key = CC[C@@]1(O)C(=O)OCc2c1cc1n(c2=O)Cc2cc3c(CN(C)C)c(O)ccc3nc2-1 + CN(C)c1ccc(Nc2c3ccc(NC(=O)CCN4CCCC4)cc3nc3cc(NC(=O)CCN4CCCC4)ccc23)cc1 123

* * *

# Tested on: 817829-284-R-J1-PDC complex spheroids, viability
# method summary: Anticancer human tumor 817829-284-R-J1-PDC cell line growth inhibition [GQUAD]; active = viability on the fitted dose curve at most 10% of control; inactive = the rest;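 further: spheroids exposed to agents for 7 days before readout; percent viability relative to DMSO vehicle control taken as 100%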
# condition context: second compound 10 µM; first compound 0.0316 µM
# Description: DNA G-quadruplex Stabilizer Agents in Combinations in Complex Spheroids A high-throughput screen of multi-cell type tumor spheroids was designed to identify active combinations of DNA G-quadruplex stabilizer agents and targeted small molecules. […] Compounds. […] If the clinical Cmax for an agent had not been determined, the highest concentration tested was 10 microM. […]
Could you please pick one outcome from this set? 1 (yes) for active, 0 (no) for inactive

Observe how each entry below is paired with its result.
CC1COCCN1c1cc(-c2ccnn2C)c2ccnc(-c3ccn[nH]3)c2n1 (configuration not stated) + Cc1cnc(CNC(=O)c2c(=O)c3ccc(N4CCCN(C)CC4)nc3n3c2sc2ccccc23)cn1 : 1 (yes)
O=C(NO)c1cnc(N2CCN(S(=O)(=O)c3ccc4ccccc4c3)CC2)nc1 + Cc1cnc(CNC(=O)c2c(=O)c3ccc(N4CCCN(C)CC4)nc3n3c2sc2ccccc23)cn1 : 1 (yes)
C=CC(=O)N1CCN(c2nc(=O)n(-c3c(C)ccnc3C(C)C)c3nc(-c4c(O)cccc4F)c(F)cc23)C(C)C1 (configuration not stated) + Cc1cnc(CNC(=O)c2c(=O)c3ccc(N4CCCN(C)CC4)nc3n3c2sc2ccccc23)cn1 : 1 (yes)
COc1ncnc(C2CC2)c1-c1ncc2cnn(Cc3ccc(-c4nc(C(F)(F)F)cn4C(C)C)cc3)c2n1 + Cc1[nH]c2ccc(F)cc2c1-c1nc2c3cccnc3c3ncccc3c2[nH]1 : 0 (no)
CC1COCCN1c1cc(C2(S(C)(=N)=O)CC2)nc(-c2ccnc3[nH]ccc23)n1 (configuration not stated) + CN(C)c1ccc(Nc2c3ccc(NC(=O)CCN4CCCC4)cc3nc3cc(NC(=O)CCN4CCCC4)ccc23)cc1 : 0 (no)

Per the records of this test, what outcome belongs to CC(C)n1c(=O)n(C)c2cnc3cc(F)c(-c4ccc(OCCCN5CCCCC5)nc4)cc3c21 + Cc1[nH]c2ccc(F)cc2c1-c1nc2c3cccnc3c3ncccc3c2[nH]1 ? 0 (no)

Source listed as PubChem BioAssay AID2060503.
